assay: Safety and pharmacokinetics of intravenous citrulline, open label dose escalation in children undergoing repair of congenital heart defects; format: in vivo; conditions: human, plasma; 50 mg/kg intravenous, patients 6 and 8; read-out: 4 hour trough citrulline level
ATTRIBUTE MEASURED: concentration at 4 h (µM)
Report only the number, with the unit µM understood.

[ask] Please give measured concentration at 4 h of the following entry: NC(=O)NCCCC(N)C(=O)O (stereo not shown) [citrulline, 2-amino-5-(carbamoylamino)pentanoic acid]
[reply] 40

###

test: Perioperative intravenous L-citrulline pharmacokinetics, single bolus dose escalation in children undergoing congenital cardiac surgery; format: in vivo; conditions: human, plasma; 150 mg/kg IV bolus after initiation of CPB; read-out: Four hour citrulline levels
ATTRIBUTE MEASURED: concentration at 4 h

[ask] Please give measured concentration at 4 h of the following entry: NC(=O)NCCCC(N)C(=O)O (stereo not shown)
[reply] ~100 µM
